# credit: PubChem BioAssay (NCI)

- Test system: SW-620 colon
- test: NCI-60 one-dose screen, 48 h (100 = growth as untreated, 0 = no growth, -100 = all killed)
- conditions: 10 µM unless noted
This is part of a sample that, as a whole, favours compounds with a hit. Of some 83,000 tested, about 20% had one in any assay.
measurement kind: growth (%)

molecule=NS(=O)(=O)c1ccc(Cn2c(SCC(=O)N/N=C/c3ccccc3O)nc3ccccc3c2=O)cc1 scale_unit=% reported_value=60.4
molecule=COc1ccc(/C=C/C(=O)Nc2cc(/C=C\c3cc(OC)c(OC)c(OC)c3)cc(OC)c2OC)cc1OC scale_unit=% reported_value=35.2
molecule=c1ccc(Cn2cnc3ccc(-c4nc(-c5ccc6c(c5)ncn6C5CCCCC5)cn5ccnc45)cc32)cc1 scale_unit=% reported_value=2.17
molecule=O=S(=O)(NCCNc1nccc(-c2c(-c3cccc(O)c3)nc3occn23)n1)c1cccc(F)c1 scale_unit=% reported_value=115
molecule="CN1CCC(=C(c2ccccc2)c2ccccc2)C(c2ccccc2)C1 (stereo not drawn)" scale_unit=% reported_value=92.9
molecule=NC(=NCCCOc1ccc(F)cc1)Nc1ccc(I)cc1 scale_unit=% reported_value=67.1
molecule=COc1cc2c(=O)n(CCCN(C)C)c3c4cc5c(cc4ccc3c2cc1OC)OCO5 scale_unit=% reported_value=38.6
molecule=C[C@H]1[C@H](C)CC[C@]2(C(=O)NCC#CCN3CCN(C)CC3)CC[C@]3(C)C(=CC[C@@H]4[C@@]5(C)Cc6c([nH]c7ccccc67)C(C)(C)[C@@H]5CC[C@]43C)[C@H]12 scale_unit=% reported_value=57.5
molecule=O=C(O)c1ccc(-c2nn(-c3ccc(C(F)(F)F)cc3)cc2CNc2ccc(Oc3ccccc3)cc2)cc1 scale_unit=% reported_value=93.9
molecule=COC(=O)/C=C1\S/C(=N\NC(=O)c2cc3ccc2/C=C\c2ccc(cc2)/C=C\3)N(Cc2ccccc2)C1=O scale_unit=% reported_value=18.2
molecule="COc1cc(C2C3=C(COC3=O)N(CCO)c3cc4c(cc32)OCO4)cc(OC)c1OC (stereo not drawn)" scale_unit=% reported_value=18.8
molecule=COc1cc(NC(=O)CSc2nc3ccc(C)cc3c(=O)n2Cc2ccccc2)cc(OC)c1OC scale_unit=% reported_value=81.3
molecule="O=C1c2ccccc2CCC12OC2c1cn(-c2ccccc2)nc1-c1ccc(Cl)cc1 (stereo not drawn)" scale_unit=% reported_value=95.6
